species: Bos taurus; experiment: Displacement of ethidium bromide from calf thymus DNA by fluorescence binding assay
Items are presented alongside their recorded log Ka.

compound.structure	log Ka
O=C(CCCN1C(=O)c2cccc3cccc(c23)C1=O)NCCN1CCOCC1	5.87
CN(C)CCn1c2ccccc2c2nc3ccccc3nc21	5.93
CCN(CC)CCNC(=O)c1cc2c(ccc3ccccc32)o1	5.77
CCN(CC)CCOC(=O)CCCn1c2ccccc2c2nc3ccccc3nc21	5.45
CN(C)CCOC(=O)Cn1c2ccccc2c2nc3ccccc3nc21	5.46

* * *

species: Bos taurus; test: Displacement of ethidium bromide from calf thymus DNA by fluorescence binding assay
The entries below are paired with their reported log Ka.

compound	log Ka
CN1CCN(CC(=O)NN2C(=O)c3cccc4cccc(c34)C2=O)CC1	5.43
CCN(CC)CCN1C(=O)/C(=N\NC(=O)CN2CCCCC2)c2ccccc21	5.74
c1ccc2nc3c(nc2c1)c1ccccc1n3CCCN1CCOCC1	6.09
CN(C)CCNC(=O)CCCn1c2ccccc2c2nc3ccccc3nc21	5.01
CN(C)CCNC(=O)Cn1c2ccccc2c2nc3ccccc3nc21	5.38
O=C1c2cccc3cccc(c23)C(=O)N1CCNCCO	5.57
OCCNCCCn1c2ccccc2c2nc3ccccc3nc21	6.4
OCCNCCCCn1c2ccccc2c2nc3ccccc3nc21	5.96
O=C(CN1CCCCCC1)N/N=C1\C(=O)Nc2ccccc21	5.49
c1ccc2nc3c(nc2c1)c1ccccc1n3CCCN1CCCCC1	6.04
CN(C)CCCNC(=O)Cn1c2ccccc2c2nc3ccccc3nc21	5.2
CC1CCCCN1CCCn1c2ccccc2c2nc3ccccc3nc21 (stereo not drawn)	6.28
CC1CCCCN1CCn1c2ccc3ccccc3c2c2nc3ccccc3nc21 (stereo not drawn)	6.83
CN(C)CCCNC(=O)CCCn1c2ccccc2c2nc3ccccc3nc21	5.09
CN(C)CCOCCn1c2ccccc2c2nc3ccccc3nc21	5.59
O=C(CN1CCCC1)N/N=C1/C(=O)Nc2ccc3ccccc3c21	6.44
CN(C)CCNCCn1c2ccccc2c2nc3ccccc3nc21	6.83
O=C(Cn1c2ccccc2c2nc3ccccc3nc21)NCCCNCCO	5.06

* * *

species: Bos taurus; assay: Displacement of ethidium bromide from calf thymus DNA by fluorescence binding assay

compound.structure	log Ka
CCN(CC)CCNC(=O)CCCN1C(=O)c2cccc3cccc(c23)C1=O	6.13
c1ccc2nc3c(nc2c1)c1ccccc1n3CCN1CCCCC1	6.01
O=C(CCCN1C(=O)c2cccc3cccc(c23)C1=O)NCCCN1CCOCC1	5.07

* * *

assay: Cytotoxicity against African green monkey CV1 cells assessed as cell viability at 0.1 to 100 uM preincubated for 4 hrs measured after 24 hrs by MTT assay relative to control; assay type: cell-based, CV-1; conditions: chlorocebus aethiops, read-out: Activity
viability at 24 h, up to 100 µM vs 90%: less than gives y; not less than gives n.

compound	classification
CN(C)CCOC(=O)CCCn1c2ccccc2c2nc3ccccc3nc21	n
c1ccc2nc3c(nc2c1)c1ccccc1n3CCNCCN1CCCCC1	n
CCN(CC)CCCC(C)N1C(=O)c2cccc3cccc(c23)C1=O (stereo not drawn)	y
COC(=O)CN1CCN(CCN2C(=O)c3cccc4cccc(c34)C2=O)CC1	y
Cc1ccc2c(c1)c1nc3ccccc3nc1n2CCN1CCN(C)CC1	y
CN(C)CCCOC(=O)Cn1c2ccccc2c2nc3ccccc3nc21	y
CCCCN(CCO)CCN1C(=O)c2cccc3cccc(c23)C1=O	y
CCN(CC)CCCNCCn1c2ccccc2c2nc3ccccc3nc21	y
c1ccc2nc3c(nc2c1)c1ccccc1n3CCNCCCN1CCOCC1	y
CCN(CC)CCNCCn1c2ccccc2c2nc3ccccc3nc21	n
COc1ccc2c(c1)c1nc3ccccc3nc1n2CCN1CCCCC1	y
CN(C)CCNC(=O)Cn1c2ccccc2c2nc3ccccc3nc21	n
O=C(CCCn1c2ccccc2c2nc3ccccc3nc21)NCCCN1CCOCC1	y
CCN(CCO)CCN1C(=O)c2cccc3cccc(c23)C1=O	y
CC(O)N(C)CCn1c2ccccc2c2nc3ccccc3nc21 (stereo not drawn)	y
CN(C)CCNCCn1c2ccccc2c2nc3ccccc3nc21	n
O=C(CCCn1c2ccccc2c2nc3ccccc3nc21)NCCN1CCOCC1	n
CCN(CC)CCn1c2ccc(OC)cc2c2nc3ccccc3nc21	y
CN(C)CCNC(=O)CCCn1c2ccccc2c2nc3ccccc3nc21	n

* * *

organism: Bos taurus; assay: Displacement of ethidium bromide from calf thymus DNA by fluorescence binding assay
Threshold-based label: log Ka under 6 gives true, log Ka not under 6 gives false.

compound	classification
CN(C)CCCNC(=O)CN1C(=O)c2cccc3cccc(c23)C1=O	true
O=C(CCCn1c2ccccc2c2nc3ccccc3nc21)OCCCN1CCOCC1	true
CC1CCN(CCCCn2c3ccccc3c3nc4ccccc4nc32)CC1	true
CN1CCN(CCCCCCn2c3ccccc3c3nc4ccccc4nc32)CC1	false
CCN(CC)CCCCCCn1c2ccccc2c2nc3ccccc3nc21	true
CC1CCN(CCn2c3ccc4ccccc4c3c3nc4ccccc4nc32)CC1	false
CN(C)CCCOC(=O)CCCn1c2ccccc2c2nc3ccccc3nc21	true
O=C(NCCN1CCOCC1)c1cc2c(ccc3ccccc32)o1	true
CCN(CC)CCCNC(=O)Cn1c2ccccc2c2nc3ccccc3nc21	true
O=C1c2cccc3cccc(c23)C(=O)N1CCCN1CCOCC1	false
c1ccc2nc3c(nc2c1)c1ccccc1n3CCNCCCN1CCOCC1	false
CCN(CC)CCCNC(=O)CCCCCN1C(=O)c2cccc3cccc(c23)C1=O	false
CC1CCCCN1CCn1c2ccccc2c2nc3ccccc3nc21 (stereo not drawn)	true
O=C(CCCn1c2ccccc2c2nc3ccccc3nc21)OCCN1CCOCC1	true
CCCN(CCC)CCCCn1c2ccccc2c2nc3ccccc3nc21	true
CCN(CC)CCN1C(=O)/C(=N\NC(=O)CN2CCCCCC2)c2ccccc21	false
c1ccc2nc3c(nc2c1)c1ccccc1n3CCCCCN1CCOCC1	true
O=C(Cn1c2ccccc2c2nc3ccccc3nc21)NCCNCCO	true
CN(C)CCOC(=O)CCCn1c2ccccc2c2nc3ccccc3nc21	true
O=C(CN1C(=O)c2cccc3cccc(c23)C1=O)NCCCN1CCOCC1	true
O=C(CCCCCN1C(=O)c2cccc3cccc(c23)C1=O)NCCN1CCOCC1	true
CCN(CC)CCCN1C(=O)c2cccc3cccc(c23)C1=O	false

* * *

organism: Bos taurus; assay: Displacement of ethidium bromide from calf thymus DNA by fluorescence binding assay
# log Ka per entry

compound.structure	log Ka
CC1CCN(CCCn2c3ccccc3c3nc4ccccc4nc32)CC1	6.07
CCCCN(CC)CCn1c2ccccc2c2nc3ccccc3nc21	6.01
c1ccc2nc3c(nc2c1)c1ccccc1n3CCN1CCCCCC1	6.16
CCN(CC)CCn1c2ccccc2c2nc3ccccc3nc21	6.07
CCN(CC)CCN1C(=O)/C(=N\NC(=O)CCN2CCN(C)CC2)c2ccccc21	6.15
O=C(CCN1CCCCC1)N/N=C1\C(=O)Nc2ccccc21	5.92
